Assay: in vitro
Settings: human, Caco-2, pH 7.4
property.label: Papp A→B at 2 h (×10⁻⁶ cm/s)
Just the number in ×10⁻⁶ cm/s, nothing appended.

Examples with their reported Papp A→B at 2 h follow.
[
  {
    "compound": "C[C@@H]1C[C@H]2[C@@H]3CCC4=C/C(=N/NC(=O)[C@@H](N)Cc5ccccc5)C=C[C@]4(C)[C@@]3(F)[C@@H](O)C[C@]2(C)[C@@]1(O)C(=O)CO [Compound VIIA]",
    "measure.unit": "×10⁻⁶ cm/s",
    "observed.measurement": 0.17
  },
  {
    "compound": "CC(C)C(N)C(=O)N/N=C(/CO)[C@@]1(O)[C@H](C)C[C@H]2[C@@H]3CCC4=CC(=O)C=C[C@]4(C)[C@@]3(F)[C@@H](O)C[C@@]21C (single isomer, unassigned) [Compound IVA]",
    "measure.unit": "×10⁻⁶ cm/s",
    "observed.measurement": 0.2
  },
  {
    "compound": "C[C@@H]1C[C@H]2[C@@H]3CCC4=C/C(=N\\NC(=O)[C@@H](N)Cc5ccccc5)C=C[C@]4(C)[C@@]3(F)[C@@H](O)C[C@]2(C)[C@@]1(O)C(=O)CO [Compound VIIB]",
    "measure.unit": "×10⁻⁶ cm/s",
    "observed.measurement": 0.13
  }
]

Could you now consider this next compound?
// field: Papp A→B at 2 h; key: C[C@@H]1C[C@H]2[C@@H]3CCC4=C/C(=N/NC(=S)[C@@H](N)Cc5ccccc5)C=C[C@]4(C)[C@@]3(F)[C@@H](O)C[C@]2(C)[C@@]1(O)C(=O)CO [Compound X] ; value = 0.33

====

GR Binding Data by entry:
Molecular target: UniProtKB P04150
Sequence (P04150 whole entry, species assumed): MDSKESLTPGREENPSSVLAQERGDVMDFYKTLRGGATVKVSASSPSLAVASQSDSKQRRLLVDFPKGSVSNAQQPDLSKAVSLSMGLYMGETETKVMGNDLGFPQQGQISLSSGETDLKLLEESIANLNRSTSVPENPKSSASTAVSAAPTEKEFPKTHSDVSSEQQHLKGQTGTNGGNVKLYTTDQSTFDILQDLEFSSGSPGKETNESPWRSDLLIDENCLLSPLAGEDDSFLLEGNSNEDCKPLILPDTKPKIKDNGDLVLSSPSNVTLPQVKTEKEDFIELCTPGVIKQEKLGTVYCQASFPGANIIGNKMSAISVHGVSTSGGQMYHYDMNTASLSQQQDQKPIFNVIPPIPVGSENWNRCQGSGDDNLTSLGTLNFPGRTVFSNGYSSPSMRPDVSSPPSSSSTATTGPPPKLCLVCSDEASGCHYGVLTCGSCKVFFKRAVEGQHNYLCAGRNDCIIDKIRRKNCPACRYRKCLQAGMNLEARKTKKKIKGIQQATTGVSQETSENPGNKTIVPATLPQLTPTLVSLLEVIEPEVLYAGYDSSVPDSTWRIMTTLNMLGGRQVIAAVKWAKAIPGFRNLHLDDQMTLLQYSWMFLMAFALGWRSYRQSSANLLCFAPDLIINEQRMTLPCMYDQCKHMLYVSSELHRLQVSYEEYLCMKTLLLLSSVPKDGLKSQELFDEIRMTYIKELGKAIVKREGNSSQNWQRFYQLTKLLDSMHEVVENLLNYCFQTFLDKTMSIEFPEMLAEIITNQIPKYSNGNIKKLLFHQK
Settings: @ 1 uM
Report field: quantity (unit follows the number).

[
  {
    "compound": "C[C@@H]1C[C@H]2[C@@H]3CCC4=CC(=O)C=C[C@]4(C)[C@@]3(F)[C@@H](O)C[C@]2(C)[C@@]1(O)/C(CO)=N\\NC(=O)C(N)Cc1ccccc1 (single isomer, unassigned)",
    "GR Binding Data": "8%"
  },
  {
    "compound": "C[C@@H]1C[C@H]2[C@@H]3CCC4=C/C(=N\\NC(=O)[C@H](N)Cc5ccccc5)C=C[C@]4(C)[C@@]3(F)[C@@H](O)C[C@]2(C)[C@@]1(O)C(=O)CO",
    "GR Binding Data": "26%"
  },
  {
    "compound": "CC(C)C(N)C(=O)N/N=C(/CO)[C@@]1(O)[C@H](C)C[C@H]2[C@@H]3CCC4=CC(=O)C=C[C@]4(C)[C@@]3(F)[C@@H](O)C[C@@]21C (single isomer, unassigned) [Compound IVA]",
    "GR Binding Data": "8%"
  }
]

Below: the item to evaluate.
Sample CC(C)C(N)C(=O)N/N=C(/CO)[C@@]1(O)[C@H](C)C[C@H]2[C@@H]3CCC4=CC(=O)C=C[C@]4(C)[C@@]3(F)[C@@H](O)C[C@@]21C (single isomer, unassigned) [Compound IVB] ; GR Binding Data observed: 16%

====

Conditions: pH 4.5 PBS, 37° C., 5 μM
property.label: Chemical Stability, pH 4.5

[
  {
    "molecule": "CC(C)C(N)C(=O)N/N=C1\\C=C[C@@]2(C)C(=C1)CC[C@H]1[C@@H]3C[C@@H](C)[C@](O)(C(=O)CO)[C@@]3(C)C[C@H](O)[C@@]12F (single isomer, unassigned) [Compound VA]",
    "observed.measurement": "Yes"
  },
  {
    "molecule": "CC(C)C(N)C(=O)N/N=C1\\C=C[C@@]2(C)C(=C1)CC[C@H]1[C@@H]3C[C@@H](C)[C@](O)(C(=O)CO)[C@@]3(C)C[C@H](O)[C@@]12F (single isomer, unassigned) [Compound VB]",
    "observed.measurement": "Yes"
  },
  {
    "molecule": "C[C@@H]1C[C@H]2[C@@H]3CCC4=CC(=O)C=C[C@]4(C)[C@@]3(F)[C@@H](O)C[C@]2(C)[C@@]1(O)/C(CO)=N\\NC(=O)C(N)Cc1ccccc1 (single isomer, unassigned) [Compound IIIB]",
    "observed.measurement": "Yes"
  },
  {
    "molecule": "C[C@@H]1C[C@H]2[C@@H]3CCC4=C/C(=N/NC(=O)[C@@H](N)Cc5ccccc5)C=C[C@]4(C)[C@@]3(F)[C@@H](O)C[C@]2(C)[C@@]1(O)C(=O)CO",
    "observed.measurement": "Yes"
  }
]

# ---- query molecule ----
Lab note: measured Chemical Stability, pH 4.5 of CCC(=O)N/N=C(\CO)[C@@]1(O)[C@H](C)C[C@H]2[C@@H]3CCC4=CC(=O)C=C[C@]4(C)[C@@]3(F)[C@@H](O)C[C@@]21C was Yes

Values compiled from patent US20260263603A1.
